Each recorded value in this set is attributed to patent US20210371503A1.

target: T1, prefusion stabilized SARS-CoV-2 S ectodomain (SARS-CoV-2, UniProt P0DTC2 14-1208); experiment: ELISA, coated S ectodomain [cont'd]
T1 construct: also called SARS-CoV-2 spike ectodomain; ectodomain of the spike (S) homotrimer of SARS-CoV-2
property: EC50 (µg/mL)
Your answer should be a plain number; it is taken to be in µg/mL.

Look over these answered cases.
| binder | unitAbbreviation | resultNumber |
| --- | --- | --- |
| HbnC3t1p2_B10 (antibody, V domains shown) VH: EVQLVESGGGLVQPGGSLRLSCAASGFIVSSNYMSWVRQAPGKGLEWVSVIYSGGSTFYADSVKGRFTISRDNSKNTLYLQMNSLRAEDTAVYYCARDYGDYFFDYWGQGTLVTVSS VL: EIVLTQSPGTLSLSPGERATLSCRASQSVSSYLAWYQQKPGQAPRLLISGASSRAAGIPDRFSGSGSGTDFTLTINRLEPEDFAVYYCQQYGSSPRTFGQGTKLEIK | µg/mL | 0.22 |
| HbnC4t1p1_D5 (antibody, V domains shown) VH: EVQLVESGGGLVQPGRSLRLSCAASGFTFDDYAMHWVRQAPGKGLEWVSGISWNSGSIGYADSVKGRFTISRDNAKNSLYLQMNSLRAEDTGLYYCAKDINYDSGGYHKNYFDYWGQGTLVTVSS VL: DIQMTQSPSSLSASVGDRATITCRASQSISSYLNWYQEKPGKAPKLLIYAASSLQSGVPSRFSGSGSGTDFTLTISSLQPEDFATYYCQQSYSNPLTFGGGTKVEIK | µg/mL | 0.25 |
| HbnC2t1p2_D9 (antibody, V domains shown) VH: QVQLVESGGGVVQPGRSLRLSCAASGFTFSSYGMHWVRQAPGKGLEWVAVIWYDGRNKYYVDSVKGRFTISRDNSKNTLYLQISSLRAEDTAVYYCARAARRPVVTDTMAYYMDVWGKGTTVTVSS VL: EIVLTQSPATLSLSPGERATLSCRASLSLSSYLAWYQQKPGQAPRLLIYDASNRATGIPARFSGSGSGTDFTLTISSLEPEDFAVYYCQQRSNWPPTWTFGQGTKAEIKR | µg/mL | 0.04 |
| FnC1t2p1_G5 (antibody, V domains shown) VH: QVQLVQSGSELKKPGASVKVSCKASGYTFLRFAMNWLRQAPGQGLEWMGWIDTNTGTPTYAQGFTGRFVFSLDTSVSTAYLQISSLKAEDTAVYYCARSLRGANLVPWGQGTLVTVSS VL: DIQMTQSPSSLSASVGDRVTITCQASQDVSNYLNWYQQQPGKAPKLLIYDAFNLETGVPSRFSGSGSGTDFTFTISSLQPEDIATYYCQQYDNLPLTFGGGTKVEIK | µg/mL | 0.02 |
| HbnC3t1p1_G4 (antibody, V domains shown) VH: EVQLVESGGGLVQPGGSLRLSCAASGFTVSSNYMSWVRQAPGKGLEWVSVIYSGGSTFYADSVKGRFTISRDNSKNTLYLQMNSLRAEDTAVYYCARDFGDFFFDYWGQGTLVTVSS VL: EIVLTQSPGTLSLSPGERATLSCRASQSVSSYLAWYQQKPGQAPRLLIYGVSSRATGIPDRFSGSGSGTDFTLTISRLEPEDFAVYYCQQYGSSPRTFGQGTKVEIK | µg/mL | 0.02 |

Okay, next one:
Identify the reported EC50 for the following entry. HbnC3t1p1_F4 (antibody, V domains shown) VH: QVQLVESGGGVVQPGRSLRLSCAATGFTFRRYGMHWVRQAPGKGLEWVAGILFDGSNKYYVDSVKGRFTISRDSSRNTLYLQLNSLRREDTAVYYCAKGGDYEWELLESWGQGTLVTVSS VL: DIQMTQSPSTVSASVGDRVTITCRASQSIDNWLAWYQEKPGKAPKVLIYKASSLESGVPSRFSGRGSGTEFTLTISSLQPGDFATYYCQHYHSFPLTFGGGTKVDIK
0.04
